biological target: Discoidin domain-containing receptor 2 (Homo sapiens, UniProt Q16832); test: Inhibition of flag-tagged DDR2 (unknown origin) by TR-FRET assay
Sequence (Q16832 whole entry, the tested form may be a part): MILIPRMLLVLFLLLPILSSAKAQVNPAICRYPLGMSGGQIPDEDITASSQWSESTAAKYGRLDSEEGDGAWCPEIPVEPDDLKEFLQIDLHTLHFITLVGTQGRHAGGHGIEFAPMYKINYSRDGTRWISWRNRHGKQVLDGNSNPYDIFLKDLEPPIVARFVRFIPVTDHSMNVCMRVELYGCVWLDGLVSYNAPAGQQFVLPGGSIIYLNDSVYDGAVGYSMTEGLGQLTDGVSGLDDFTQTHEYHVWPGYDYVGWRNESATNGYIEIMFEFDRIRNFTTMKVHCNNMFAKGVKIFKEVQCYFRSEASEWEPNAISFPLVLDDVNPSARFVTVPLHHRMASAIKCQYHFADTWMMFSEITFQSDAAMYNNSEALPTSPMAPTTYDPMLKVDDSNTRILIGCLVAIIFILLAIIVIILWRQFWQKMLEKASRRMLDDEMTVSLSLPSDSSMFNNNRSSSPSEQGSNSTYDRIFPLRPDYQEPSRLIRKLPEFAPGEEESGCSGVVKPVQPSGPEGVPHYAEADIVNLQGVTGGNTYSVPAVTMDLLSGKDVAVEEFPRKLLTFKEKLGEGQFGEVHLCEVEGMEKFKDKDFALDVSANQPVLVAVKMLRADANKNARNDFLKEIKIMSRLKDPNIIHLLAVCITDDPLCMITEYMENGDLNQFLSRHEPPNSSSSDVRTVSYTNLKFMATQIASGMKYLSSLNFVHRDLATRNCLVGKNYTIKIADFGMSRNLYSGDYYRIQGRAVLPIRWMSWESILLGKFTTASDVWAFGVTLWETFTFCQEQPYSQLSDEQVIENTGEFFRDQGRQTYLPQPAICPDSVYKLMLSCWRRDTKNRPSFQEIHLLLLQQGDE
ATTRIBUTE_MEASURED: IC50 (nM)
Only the number, expressed in nM, is required.

Briefly, IC50 measured for Cc1ccc(C(=O)Nc2cccc(C(F)(F)F)c2)cc1-c1ccc2nc(Nc3cnn(C)c3)ncc2c1 : 2.2

----------
clearance for assorted molecules
test: Clearance in C57BL/6 mouse at 1 mg/kg, iv measured upto 8 hrs by HPLC analysis; type: ADME, organism-based; conditions: in vivo
Express the result in mL/min/kg but write the number alone.

Sample answers from the record:
>>> print(df.to_string())
                        structure_as_smiles  quantitative_readout
0  O=C(CN1CN(c2ccccc2)C2(CCN(C(=O)c3ccc4[nH]ncc4n3)CC2)C1=O)NCC(F)(F)F                   120
1  O=C(CN1C(=O)C2(CCN(C(=O)c3ccc4[nH]ncc4n3)CC2)c2c(Br)cccc21)NCC(F)(F)F                   103

Kindly review the next molecule as well.
CNC(=O)CN1CN(c2ccccc2)C2(CCN(C(=O)c3ccc4[nH]ncc4c3)CC2)C1=O has a reported clearance of 110
